# EXPERIMENT_DESCRIPTION: qHTS profiling for inhibitors of Plasmodium falciparum proliferation (AID 504749);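 also: 0% = DMSO vehicle and full inhibition = artemisinin control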
# TEST_PARAMETERS: P. falciparum in erythrocytes, SYBR Green DNA, 72 h; at 28.7 µM (top of the series); parasite line A
Results filed as inconclusive are left out.
OBSERVED_PROPERTY: activity, negative = inhibition (%)

COMPOUND | OBSERVED_PROPERTY | READOUT_UNITS | READOUT_VALUE
C[C@H](N)C(=O)N[C@@H](C)P(=O)(O)O | activity, negative = inhibition | % | 12.4
CC(C)c1ncc([N+](=O)[O-])n1C | activity, negative = inhibition | % | 8.33
CCCCCCCCCCCCCCCCCC(=O)OCC(C)O (stereo unspecified) | activity, negative = inhibition | % | 4.03
CC(C)O | activity, negative = inhibition | % | 2.73
CN1C(C(=O)Nc2ccccn2)C(=O)c2sc(Cl)cc2S1(=O)=O (stereo unspecified) | activity, negative = inhibition | % | 8.71
CN(CCO)CC(O)Cn1cnc2c1c(=O)n(C)c(=O)n2C (stereo unspecified) (tested in a mixture with another compound) | activity, negative = inhibition | % | 12.7
COc1ccc(C(=O)CCC(=O)O)c2ccccc12 | activity, negative = inhibition | % | 16.4
Cc1cccc(C)c1NC(=O)C1CCCCN1C (stereo unspecified) | activity, negative = inhibition | % | -4.61
C[C@H](CCCC(C)(C)O)[C@H]1CC[C@H]2[C@@H]3CC=C4C[C@@H](O)CC[C@]4(C)[C@H]3CC[C@]12C | activity, negative = inhibition | % | 13.3
COC(=O)CCC[N+](C)(C)C | activity, negative = inhibition | % | 18.8
CCCc1ccc(C(=O)O)cc1 | activity, negative = inhibition | % | -2.85
C=CC(=O)O | activity, negative = inhibition | % | 2.32
OCCCNc1ccccc1 | activity, negative = inhibition | % | 8.17
Cc1ncc(C[n+]2csc(CCOP(=O)(O)OP(=O)(O)O)c2C)c(N)n1 | activity, negative = inhibition | % | -0.174
CCCCCCCCCCCCCCCCCC(=O)OC[C@@H](O)[C@H]1OC[C@H](O)[C@H]1O | activity, negative = inhibition | % | -5.9
CC(CCc1ccc(O)cc1)NCC(O)c1ccc(O)cc1 (stereo unspecified) | activity, negative = inhibition | % | 1.25
N=C(N)n1cccn1 | activity, negative = inhibition | % | -11.6
O=S(=O)(O)CC(S)CS (stereo unspecified) | activity, negative = inhibition | % | 14.3
CN(C)CCOc1ccc(/C(=C(/CCCl)c2ccccc2)c2ccccc2)cc1 | activity, negative = inhibition | % | -4.58
CN1CCC(OC(=O)C(Oc2ccc(Cl)cc2)Oc2ccc(Cl)cc2)CC1 | activity, negative = inhibition | % | 7.76
O=C(O)CC/C=C\CC[C@@H]1[C@@H](N2CCCCC2)[C@@H](O)C[C@@H]1OCc1ccc(-c2ccccc2)cc1 | activity, negative = inhibition | % | 6.82
Oc1cccc(O)c1O | activity, negative = inhibition | % | -26.1
CC(C)=CCC/C(C)=C/CC/C(C)=C/CC/C=C(\C)CC/C=C(\C)CCC=C(C)C | activity, negative = inhibition | % | 0.919
CCOC(=O)c1cc(-c2ccccc2)nc2ccc(C)cc12 | activity, negative = inhibition | % | 17.4
O=P(O)(O)O | activity, negative = inhibition | % | 1.79
NC(=O)Oc1ccc(Cc2ccccc2)cc1 | activity, negative = inhibition | % | 0.685
